experiment: Plasma pharmacokinetics of BIA 10-2474 and metabolites; assay type: in vivo, human; details: human, plasma, oral, 5 mg, tmax, 5 mg once daily, Day 10

structure smiles	Tmax, h
CN(C(=O)n1cnc(-c2ccc[n+]([O-])c2)c1)C1CCCCC1	2

----------
experiment: Plasma pharmacokinetics of BIA 10-2474 and metabolites; format: in vivo, human; conditions: both, human, plasma, oral, 5 mg, AUC0–t, single dose 5 mg
outcome measure: AUC(0-t)

structure smiles	outcome measure	result
CN(C(=O)n1cnc(-c2ccc[n+]([O-])c2)c1)C1CCCCC1	AUC(0-t)	693 ng·h/mL

----------
test: Plasma pharmacokinetics of BIA 10-2474 and metabolites; type: in vivo, human; conditions: human, plasma, oral, 5 mg, t1/2, 5 mg once daily, Day 10

structure smiles	units symbol	half-life
CN(C(=O)n1cnc(-c2ccc[n+]([O-])c2)c1)C1CCCCC1	h	7.87

----------
test: Plasma pharmacokinetics of BIA 10-2474 and metabolites; type: in vivo, human; details: human, plasma, oral, 50 mg, Cmax, 50 mg once daily, Day 1
outcome measure: Cmax

structure smiles	result
CN(C(=O)n1cnc(-c2ccc[n+]([O-])c2)c1)C1CCCCC1	667 ng/mL

----------
assay: Plasma pharmacokinetics of BIA 10-2474 and metabolites; assay type: in vivo, human; settings: human, plasma, oral, 20 mg, CL, single dose 20 mg
outcome measure: clearance (mL/min)

structure smiles	outcome measure	quantitative result
CN(C(=O)n1cnc(-c2ccc[n+]([O-])c2)c1)C1CCCCC1	clearance	81.2

----------
assay: Plasma pharmacokinetics of BIA 10-2474 and metabolites; type: in vivo, human; conditions: human, plasma, oral, 5 mg, CL, 5 mg once daily, Day 10

compound	units symbol	clearance
CN(C(=O)n1cnc(-c2ccc[n+]([O-])c2)c1)C1CCCCC1 [BIA 10-2474]	mL/min	101

----------
experiment: Plasma pharmacokinetics of BIA 10-2474 and metabolites; type: in vivo, human; conditions: human, plasma, oral, 20 mg, tmax, 20 mg once daily, Day 10

structure smiles	Tmax [h]
CN(C(=O)n1cnc(-c2ccc[n+]([O-])c2)c1)C1CCCCC1	2

----------
assay: Plasma pharmacokinetics of BIA 10-2474 and metabolites; assay type: in vivo, human; conditions: human, plasma, oral, 5 mg, AUC0–t, 5 mg once daily, Day 1

structure smiles	units symbol	AUC(0-t)
CN(C(=O)n1cnc(-c2ccc[n+]([O-])c2)c1)C1CCCCC1	ng·h/mL	695

----------
experiment: Plasma pharmacokinetics of BIA 10-2474 and metabolites; format: in vivo, human; details: human, plasma, oral, 20 mg
outcome measure: AUC(0-inf) (ng·h/mL)

structure smiles	outcome measure	quantitative result
CN(C(=O)n1cnc(-c2ccc[n+]([O-])c2)c1)C1CCCCC1	AUC(0-inf)	4170

----------
experiment: Plasma pharmacokinetics of BIA 10-2474 and metabolites; assay type: in vivo, human; conditions: human, plasma, oral, 5 mg, tmax, 5 mg once daily, Day 1
outcome measure: Tmax (h)

structure smiles	quantitative result
CN(C(=O)n1cnc(-c2ccc[n+]([O-])c2)c1)C1CCCCC1	2

----------
assay: Plasma pharmacokinetics of BIA 10-2474 and metabolites; format: in vivo, human; conditions: single dose levels below 40 mg
outcome measure: plasma abundance of metabolite

structure smiles	outcome measure	result
O=C(NC1CCCCC1)n1cnc(-c2ccc[n+]([O-])c2)c1	plasma abundance of metabolite	undetectable
CN(C(=O)n1cnc(-c2cccnc2)c1)C1CCCCC1	plasma abundance of metabolite	undetectable
CN(C(=O)n1cnc(-c2cccnc2)c1)[C@H]1CC[C@H](O)CC1	plasma abundance of metabolite	undetectable
CN(C(=O)n1cnc(-c2ccc[n+]([O-])c2)c1)[C@H]1CC[C@H](O)CC1	plasma abundance of metabolite	undetectable
